Test system: Mus musculus
Assay: Effect on hypothermia in Swiss albino mouse assessed as change in rectal body temperature at 10 mg/kg, ip after 30 mins by inducible hypothermia test
Format: functional, organism-based
Parameters: dose 10 mg/kg
test_readout: deltaT (°C)

[
  {
    "chemical_structure": "COc1ccc(-c2c3n(c(=O)n(CCCCN4CCC(c5c[nH]c6ccccc56)CC4)c2=O)CCCC3)cc1",
    "test_readout": "deltaT",
    "output_unit": "°C",
    "recorded_result": -0.7
  },
  {
    "chemical_structure": "Cc1ccc(-c2c3n(c(=O)n(CCCCN4CCC(c5c[nH]c6ccccc56)CC4)c2=O)CCCC3)cc1",
    "test_readout": "deltaT",
    "output_unit": "°C",
    "recorded_result": -1
  },
  {
    "chemical_structure": "COc1ccc2[nH]cc(C3CCN(CCCCn4c(=O)c(-c5ccccc5F)c5n(c4=O)CCCC5)CC3)c2c1",
    "test_readout": "deltaT",
    "output_unit": "°C",
    "recorded_result": -0.7
  },
  {
    "chemical_structure": "COc1ccc2[nH]cc(C3CCN(CCCCn4c(=O)c(-c5ccc(C)cc5)c5n(c4=O)CCCC5)CC3)c2c1",
    "test_readout": "deltaT",
    "output_unit": "°C",
    "recorded_result": -0.6
  },
  {
    "chemical_structure": "O=c1c(-c2ccccc2F)c2n(c(=O)n1CCCCN1CCC(c3c[nH]c4ccccc34)CC1)CCCC2",
    "test_readout": "deltaT",
    "output_unit": "°C",
    "recorded_result": -1.2
  }
]

====

Target: 5-hydroxytryptamine receptor 1A (Rattus norvegicus)
Sequence (P19327 whole entry): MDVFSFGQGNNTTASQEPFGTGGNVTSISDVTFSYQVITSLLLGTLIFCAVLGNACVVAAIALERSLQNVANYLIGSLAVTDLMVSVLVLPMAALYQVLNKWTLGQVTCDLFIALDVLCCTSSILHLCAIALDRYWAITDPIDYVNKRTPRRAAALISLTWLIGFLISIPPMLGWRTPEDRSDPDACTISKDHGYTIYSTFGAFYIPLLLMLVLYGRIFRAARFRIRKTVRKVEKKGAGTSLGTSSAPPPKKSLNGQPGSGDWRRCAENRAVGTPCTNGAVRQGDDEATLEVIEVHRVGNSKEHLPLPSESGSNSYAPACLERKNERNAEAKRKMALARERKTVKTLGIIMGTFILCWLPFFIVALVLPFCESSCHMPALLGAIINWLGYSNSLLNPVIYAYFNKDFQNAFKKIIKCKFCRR
Recorded measurements of Ki, one per entry

[
  {
    "chemical_structure": "O=c1c(-c2ccccc2Cl)c2n(c(=O)n1CCCCN1CCC(c3c[nH]c4ccccc34)CC1)CCCC2",
    "Ki (µM)": 0.0362
  },
  {
    "chemical_structure": "Cc1ccc(-c2c3n(c(=O)n(CCCCN4CCC(c5c(C)[nH]c6ccccc56)CC4)c2=O)CCCC3)cc1",
    "Ki (µM)": 1.5
  },
  {
    "chemical_structure": "Cc1[nH]c2ccccc2c1C1CCN(CCCCn2c(=O)c(-c3ccc(F)cc3)c3n(c2=O)CCCC3)CC1",
    "Ki (µM)": 3.2
  }
]

====

Recorded measurements of deltaT, one per entry
Test system: Mus musculus
Experiment: Effect on hypothermia in Swiss albino mouse assessed as change in rectal body temperature at 10 mg/kg, ip after 60 mins by inducible hypothermia test
Type: functional, organism-based
Parameters: dose 10 mg/kg

[
  {
    "chemical_structure": "O=c1c(-c2ccccc2F)c2n(c(=O)n1CCCCN1CCC(c3c[nH]c4ccccc34)CC1)CCCC2",
    "output_unit": "°C",
    "deltaT": -1
  },
  {
    "chemical_structure": "Cc1ccc(-c2c3n(c(=O)n(CCCCN4CCC(c5c[nH]c6ccccc56)CC4)c2=O)CCCC3)cc1",
    "output_unit": "°C",
    "deltaT": -0.5
  },
  {
    "chemical_structure": "COc1ccc(-c2c3n(c(=O)n(CCCCN4CCC(c5c[nH]c6ccccc56)CC4)c2=O)CCCC3)cc1",
    "output_unit": "°C",
    "deltaT": -0.5
  },
  {
    "chemical_structure": "COc1ccc2[nH]cc(C3CCN(CCCCn4c(=O)c(-c5ccc(C)cc5)c5n(c4=O)CCCC5)CC3)c2c1",
    "output_unit": "°C",
    "deltaT": -0.4
  },
  {
    "chemical_structure": "COc1ccc2[nH]cc(C3CCN(CCCCn4c(=O)c(-c5ccccc5F)c5n(c4=O)CCCC5)CC3)c2c1",
    "output_unit": "°C",
    "deltaT": -0.8
  }
]
